Cited source: ChEMBL document CHEMBL4038284

# Test system: Candida albicans
# ASSAY_TEXT: Growth inhibition of Candida albicans ATCC 10231 at 3.4 ug/ml incubated for 48 hrs under dark condition by broth microdilution method relative to control
# Assay type: functional
# ASSAY_SETUP: ATCC 10231, 48 h, read-out: GI
I'd appreciate it if you could supply inhibition of growth at 3.4 µg/mL values for the items below.
Include the unit right after the number.

Solved cases (8 shown):
O=C(/C=C/c1cccc(Nc2ccnc3cc(Cl)ccc23)c1)c1ccc(Br)cc1 | 15.8%
COc1ccc(C2=NN(c3cc(Cl)cc(Cl)c3)C(c3cccc(Nc4ccnc5cc(Cl)ccc45)c3)C2)cc1 (centres undefined) | 1.02%
O=Cc1cccc(Nc2ccnc3cc(Cl)ccc23)c1 | 1.33%
Clc1ccc(N2N=C(c3ccc(Br)cc3)CC2c2cccc(Nc3ccnc4cc(Cl)ccc34)c2)cc1 (centres undefined) | 3.47%
COc1ccc(C2=NN(C(C)=O)C(c3cccc(Nc4ccnc5cc(Cl)ccc45)c3)C2)cc1 (centres undefined) | 6.14%
COc1ccc(C(=O)/C=C/c2cccc(Nc3ccnc4cc(Cl)ccc34)c2)cc1 | 5.88%
Cc1ccc(C(=O)/C=C/c2cccc(Nc3ccnc4cc(Cl)ccc34)c2)cc1 | 27.2%
COc1ccc(C2=NN(c3ccccc3)C(c3cccc(Nc4ccnc5cc(Cl)ccc45)c3)C2)cc1 (centres undefined) | 0.38%

What value of inhibition of growth at 3.4 µg/mL has been recorded for this entry: COc1cc(C2=NN(c3ccccc3)C(c3cccc(Nc4ccnc5cc(Cl)ccc45)c3)C2)cc(OC)c1OC (centres undefined)
4.16%

---

# Test system: Candida albicans
# ASSAY_TEXT: Growth inhibition of Candida albicans ATCC 10231 at 125 ug/ml incubated for 48 hrs under dark condition by broth microdilution method relative to control
# Format: functional
# ASSAY_SETUP: ATCC 10231, 48 h, read-out: GI
READOUT_TYPE: inhibition of growth at 125 µg/mL (%)
Give bare numbers, in %.

Solved cases (5 shown):
Clc1ccc(C2=NN(c3ccccc3)C(c3cccc(Nc4ccnc5cc(Cl)ccc45)c3)C2)cc1 (centres undefined) | 8.35
Clc1ccc(N2N=C(c3ccccc3)CC2c2cccc(Nc3ccnc4cc(Cl)ccc34)c2)cc1 (centres undefined) | 18.9
Clc1ccc(N2N=C(c3ccc(Br)cc3)CC2c2cccc(Nc3ccnc4cc(Cl)ccc34)c2)cc1 (centres undefined) | 23.4
O=C(/C=C/c1cccc(Nc2ccnc3cc(Cl)ccc23)c1)c1ccc(Cl)cc1 | 68.2
CC(=O)N1N=C(c2ccc(Cl)cc2)CC1c1cccc(Nc2ccnc3cc(Cl)ccc23)c1 (centres undefined) | 38.8

Quick batch: inhibition of growth at 125 µg/mL for everything below.
1. Clc1ccc2c(Nc3cccc(C4CC(c5ccc(Br)cc5)=NN4c4ccccc4)c3)ccnc2c1 (centres undefined)
2. COc1ccc(C2=NN(c3ccccc3)C(c3cccc(Nc4ccnc5cc(Cl)ccc45)c3)C2)cc1 (centres undefined)
3. Cc1ccc(C2=NN(c3cc(Cl)cc(Cl)c3)C(c3cccc(Nc4ccnc5cc(Cl)ccc45)c3)C2)cc1 (centres undefined)
4. COc1ccc(C(=O)/C=C/c2cccc(Nc3ccnc4cc(Cl)ccc34)c2)cc1
5. Cc1ccc(C2=NN(c3ccc(Cl)cc3)C(c3cccc(Nc4ccnc5cc(Cl)ccc45)c3)C2)cc1 (centres undefined)
6. COc1ccc(C2=NN(C=O)C(c3cccc(Nc4ccnc5cc(Cl)ccc45)c3)C2)cc1 (centres undefined)
7. Clc1ccc(C2=NN(c3ccc(Cl)cc3)C(c3cccc(Nc4ccnc5cc(Cl)ccc45)c3)C2)cc1 (centres undefined)

1. 26.3
2. 19.8
3. 3.88
4. 46.8
5. 16.2
6. 28
7. 19.9
